Origin of the recorded values: patent US12297190B2

- Measurement target: R232-STING (Homo sapiens, UniProt Q86WV6, H232R)
- Sequence (Q86WV6 155-341 H232R): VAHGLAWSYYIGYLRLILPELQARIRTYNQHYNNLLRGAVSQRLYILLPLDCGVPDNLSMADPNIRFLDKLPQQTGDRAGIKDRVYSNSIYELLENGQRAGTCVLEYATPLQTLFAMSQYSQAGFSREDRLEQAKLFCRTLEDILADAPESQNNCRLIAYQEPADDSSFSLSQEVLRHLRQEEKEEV
- Test name: biochemical
pKi: −log10 of the molar value.
Outcome measure: pKi

{"columns": ["Compound", "pKi"],
 "data": [
  ["CCn1nc(C)cc1-c1nnc(-c2c(C(F)F)c(C(N)=O)cc3c2cnn3C)[nH]1", "< 6.57"],
  ["CCn1nc(C)cc1-c1nnc(-c2cc(C(N)=O)cc3c2cnn3CC[C@@H]2CCN(C)C2)[nH]1", "< 6.00"],
  ["CCn1nc(C)cc1-c1n[nH]c(-c2cc(C(N)=O)cc3c2cnn3CCN2CCO[C@@H](C)[C@H]2C)n1", "< 6.00"],
  ["CCn1nc(C)cc1-c1nnc(-c2cc(C(N)=O)cc3c2cnn3[C@H]2C[C@H](NC)C2)[nH]1", "< 6.00"]
]}

Input line: Reported pKi, compound CCn1nc(C)cc1-c1nnc(-c2cc(C(N)=O)cc3c2cnn3[C@@H](C)CN2CCCC2)[nH]1 : ____
Output line: < 6.00

Input line: Next up: CCn1nc(C)cc1-c1n[nH]c(-c2cc(C(N)=O)cc3c2cnn3CCN2CC[C@H](O)C2)n1 (racemic)
Output line: < 6.00

---

List of pKi values.
- Measurement target: R232-STING (Homo sapiens, UniProt Q86WV6, H232R)
- Test name: biochemical
pKi: −log10 of the molar value.

Input line: Reported pKi, compound CCn1nc(C)cc1-c1nnc(-c2cc(C(N)=O)cc3c2cnn3CC[C@@H]2CCCN(C)C2)[nH]1 (racemic) [ZZZ042] : ____
Output line: < 6.00

Input line: Next up: CCn1nc(C)cc1-c1nnc(-c2cc(C(N)=O)cc3c2cnn3CCCCN2CCCCC2)[nH]1 [ZZZ043]
Output line: < 6.00

Input line: Next up: CCn1nc(C)cc1-c1n[nH]c(-c2cc(C(N)=O)cc3c2cnn3CCN2CC(C)(O)C2)n1 [ZZZ103]
Output line: < 6.00

Input line: Next up: Cc1nn(CC(CO)CO)c(-c2n[nH]c(-c3cc(C(N)=O)cc4c3cnn4C)n2)c1F [ZZZ049]
Output line: < 6.05

---

- Measurement target: R232-STING (Homo sapiens, UniProt Q86WV6, H232R)
- Test name: biochemical
pKi: −log10 of the molar value.
Outcome measure: pKi

Below, each entry is followed by its recorded pKi result.
{"columns": ["Compound", "pKi"],
 "data": [
  ["CCn1nc(C)cc1-c1nnc(-c2cc(C(N)=O)cc3c2cnn3C[C@H]2[C@@H]3CN(C(C)C)C[C@@H]32)[nH]1", "< 6.00"],
  ["CCn1nc(C)cc1-c1nnc(-c2cc(C(N)=O)cc3c2cnn3C[C@@H]2CCC3(CNC3)O2)[nH]1 (racemic)", "< 6.00"],
  ["CCc1nc(C)[nH]c1-c1n[nH]c(-c2cc(C(N)=O)cc3c2cnn3C)n1", "< 6.00"],
  ["CCn1nc(C)cc1-c1nnc(-c2cc(C(N)=O)cc3c2cnn3C[C@H]2[C@@H]3CNC[C@@H]32)[nH]1", "< 6.00"]
]}

Input line: Reported pKi, compound CCn1nc(C)cc1-c1nnc(-c2cc(C(N)=O)cc3c2cnn3CCCNC2CCCCC2)[nH]1 : ____
Output line: < 6.00

Input line: Next up: CCn1nc(C)cc1-c1nc(-c2nc(C(N)=O)cc3c2cnn3C)n(CCN)n1
Output line: < 7.05
